Measured Activity, listed per entry for reference.
measured.on: Estrogen receptor beta (Homo sapiens)
experiment: Activity at human ERbeta expressed in HEK293 cells assessed as relative transcription activation by estrogen response element-lucifease assay relative to estradiol
Format: cell-based
Parameters: concentration or dose not given beside the values
measurement.type: Activity (%)

compound_string=C#C[C@]1(O)CC[C@@H]2C[C@@H](c3ccc(O)cc3)CC[C@@]21C measurement_type=Activity measured_result=35.9
compound_string=C[C@]12CC[C@H](c3ccc(O)cc3F)C[C@H]1CC[C@@H]2O measurement_type=Activity measured_result=158
compound_string=C[C@]12CC[C@H](c3cc(Cl)c(O)c(Cl)c3)C[C@H]1CC[C@@H]2O measurement_type=Activity measured_result=0
compound_string=C[C@]12CC[C@H](c3ccc(O)cc3Cl)C[C@H]1CC[C@@H]2O measurement_type=Activity measured_result=189
compound_string=C[C@]12CC=C(c3ccc(O)cc3Cl)C[C@H]1CC[C@@H]2O measurement_type=Activity measured_result=117
compound_string=C[C@]12CC[C@H](c3ccc(O)cc3)C[C@H]1CC[C@@H]2O measurement_type=Activity measured_result=164

* * *

Measured Ratio, listed per entry for reference.
Species: Homo sapiens
experiment: Selectivity ratio of relative transcription activation for human ERbeta to relative transcription activation for human ERalpha
measurement.type: Ratio

compound_string=C[C@]12CC[C@H](c3ccc(O)cc3F)C[C@H]1CC[C@@H]2O measured_result=3.6
compound_string=C[C@]12CC=C(c3ccc(O)cc3Cl)C[C@H]1CC[C@@H]2O measured_result=1
compound_string=C[C@]12CC[C@H](c3ccc(O)cc3)C[C@H]1CC[C@@H]2O measured_result=39
compound_string=C[C@]12CC[C@H](c3cc(F)c(O)c(F)c3F)C[C@H]1CC[C@@H]2O measured_result=7.9
compound_string=C[C@]12CC[C@H](c3ccc(O)c(F)c3F)C[C@H]1CC[C@@H]2O measured_result=8.3
compound_string=C[C@]12CCC(c3ccc(O)cc3Cl)=C[C@H]1CC[C@@H]2O measured_result=1.3

* * *

measured.on: UniProtKB P03372
Sequence (whole entry): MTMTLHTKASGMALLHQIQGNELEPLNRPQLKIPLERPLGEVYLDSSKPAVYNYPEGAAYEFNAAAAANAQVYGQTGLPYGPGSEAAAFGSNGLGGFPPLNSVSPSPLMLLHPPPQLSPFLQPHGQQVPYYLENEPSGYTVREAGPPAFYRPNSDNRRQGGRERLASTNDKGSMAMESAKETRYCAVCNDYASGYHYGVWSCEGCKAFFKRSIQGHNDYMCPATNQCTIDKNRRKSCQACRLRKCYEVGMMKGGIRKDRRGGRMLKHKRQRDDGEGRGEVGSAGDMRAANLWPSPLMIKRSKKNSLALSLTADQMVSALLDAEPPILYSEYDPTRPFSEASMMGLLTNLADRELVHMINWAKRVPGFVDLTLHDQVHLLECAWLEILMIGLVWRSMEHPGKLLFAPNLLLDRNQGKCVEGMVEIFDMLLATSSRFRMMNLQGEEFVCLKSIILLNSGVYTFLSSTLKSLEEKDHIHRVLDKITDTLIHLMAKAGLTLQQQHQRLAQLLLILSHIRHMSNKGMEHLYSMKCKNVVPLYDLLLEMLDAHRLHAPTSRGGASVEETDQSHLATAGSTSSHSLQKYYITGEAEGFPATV
experiment: Activity at human ERalpha expressed in HEK293 cells assessed as relative transcription activation by estrogen response element-lucifease assay relative to estradiol
Assay type: cell-based
Parameters: concentration or dose not given beside the values
Measured Activity, listed per entry for reference.
measurement.type: Activity (%)

compound_string=C[C@]12CC[C@H](c3ccc(O)cc3F)C[C@H]1CC[C@@H]2O measurement_type=Activity measured_result=44.3
compound_string=C[C@]12CC[C@H](c3ccc(O)c(F)c3F)C[C@H]1CC[C@@H]2O measurement_type=Activity measured_result=18.3
compound_string=C[C@]12CC[C@H](c3ccc(O)cc3)C[C@H]1CC[C@@H]2O measurement_type=Activity measured_result=4.2
compound_string=C[C@]12CC=C(c3ccc(O)cc3Cl)C[C@H]1CC[C@@H]2O measurement_type=Activity measured_result=115
compound_string=C[C@]12CC[C@H](c3ccc(O)cc3Cl)C[C@H]1CC[C@@H]2O measurement_type=Activity measured_result=90
compound_string=C[C@]12CC[C@H](c3cc(Cl)c(O)c(Cl)c3)C[C@H]1CC[C@@H]2O measurement_type=Activity measured_result=0
compound_string=C[C@]12CC[C@H](c3cc(F)c(O)c(F)c3F)C[C@H]1CC[C@@H]2O measurement_type=Activity measured_result=12.8
compound_string=Cc1cc(O)ccc1[C@H]1CC[C@@]2(C)[C@H](CC[C@@H]2O)C1 measurement_type=Activity measured_result=-9.7
compound_string=C[C@]12CC[C@H](c3ccc(O)c(F)c3)C[C@H]1CC[C@@H]2O measurement_type=Activity measured_result=-9
compound_string=C#C[C@]1(O)CC[C@@H]2C[C@@H](c3ccc(O)cc3)CC[C@@]21C measurement_type=Activity measured_result=-16.9
compound_string=C[C@]12CCC(c3ccc(O)cc3Cl)=C[C@H]1CC[C@@H]2O measurement_type=Activity measured_result=98.6

* * *

experiment: Hepatotoxicity in Sprague-Dawley rat hepatocyte after 2 hrs
Assay type: toxicity, cell-based
conditions.used: hepatocytes, read-out: LC50
Param label: returns TRUE when CC50 at 2 h < 300 µM, returns FALSE otherwise, including exact equality.

compound=C[C@]12CC[C@H](c3ccc(O)cc3)C[C@H]1CC[C@@H]2O category_label=FALSE
compound=C[C@]12CC[C@H](c3ccc(O)c(F)c3F)C[C@H]1CC[C@@H]2O category_label=TRUE
compound=C[C@]12CC[C@H](c3cc(F)c(O)c(F)c3F)C[C@H]1CC[C@@H]2O category_label=FALSE
compound=C[C@]12CC[C@H](c3ccc(O)cc3F)C[C@H]1CC[C@@H]2O category_label=TRUE
compound="C[C@]12CC[C@@H]3c4ccc(O)cc4CC[C@H]3[C@@H]1CC[C@@H]2O [ESTRADIOL]" category_label=FALSE

* * *

Organism: Homo sapiens
experiment: Selectivity ratio of relative binding affinity for human ERbeta to relative binding affinity for human ERalpha
measurement.type: Ratio

compound_string=Cc1c(O)ccc([C@H]2CC[C@@]3(C)[C@H](CC[C@@H]3O)C2)c1F measured_result=1
compound_string=C[C@]12CC[C@H](c3ccc(O)cc3F)C[C@H]1CC[C@@H]2O measured_result=5
compound_string=C[C@]12CCC(c3ccc(O)cc3Cl)=C[C@H]1CC[C@@H]2O measured_result=1.7
compound_string=C[C@]12CC[C@H](c3ccc(O)c(F)c3)C[C@H]1CC[C@@H]2O measured_result=8.3
compound_string=C[C@]12CC[C@H](c3cc(F)c(O)cc3F)C[C@H]1CC[C@@H]2O measured_result=8.7

* * *

measured.on: Estrogen receptor beta (Homo sapiens) (UniProt Q92731)
Sequence (Q92731 whole entry): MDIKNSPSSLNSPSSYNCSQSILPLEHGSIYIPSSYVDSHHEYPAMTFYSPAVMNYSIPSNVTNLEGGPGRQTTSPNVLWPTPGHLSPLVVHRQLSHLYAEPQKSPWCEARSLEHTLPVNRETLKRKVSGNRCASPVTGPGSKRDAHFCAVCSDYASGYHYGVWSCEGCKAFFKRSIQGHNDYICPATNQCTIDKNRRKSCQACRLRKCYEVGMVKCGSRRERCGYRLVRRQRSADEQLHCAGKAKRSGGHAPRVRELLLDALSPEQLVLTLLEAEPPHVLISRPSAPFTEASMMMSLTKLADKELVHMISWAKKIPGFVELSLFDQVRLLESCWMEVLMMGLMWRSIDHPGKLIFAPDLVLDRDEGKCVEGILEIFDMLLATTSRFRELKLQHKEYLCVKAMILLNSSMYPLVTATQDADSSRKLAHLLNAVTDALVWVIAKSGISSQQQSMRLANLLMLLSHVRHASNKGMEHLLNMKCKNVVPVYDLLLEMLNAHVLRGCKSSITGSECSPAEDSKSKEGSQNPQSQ
experiment: Activity at human ERbeta expressed in HEK293 cells assessed as relative transcription activation by estrogen response element-lucifease assay relative to estradiol
Assay type: cell-based
Design: concentration or dose not given beside the values
measurement.type: Activity (%)

compound_string=Cc1cc(O)ccc1[C@H]1CC[C@@]2(C)[C@H](CC[C@@H]2O)C1 measured_on="Estrogen receptor beta (Homo sapiens) (UniProt Q92731)" measured_result=49.2
compound_string=C[C@]12CC[C@H](c3ccc(O)c(F)c3F)C[C@H]1CC[C@@H]2O measured_on="Estrogen receptor beta (Homo sapiens) (UniProt Q92731)" measured_result=151
compound_string=C[C@]12CC[C@H](c3ccc(O)c(F)c3)C[C@H]1CC[C@@H]2O measured_on="Estrogen receptor beta (Homo sapiens) (UniProt Q92731)" measured_result=196
compound_string=C[C@]12CCC(c3ccc(O)cc3Cl)=C[C@H]1CC[C@@H]2O measured_on="Estrogen receptor beta (Homo sapiens) (UniProt Q92731)" measured_result=127
compound_string=C[C@]12CC[C@H](c3cc(F)c(O)c(F)c3F)C[C@H]1CC[C@@H]2O measured_on="Estrogen receptor beta (Homo sapiens) (UniProt Q92731)" measured_result=95.4
